Consider the following compounds and their measured IC50 readings.
# Tested System: KRAS WT (Homo sapiens)
# Construct: made in house; host or cells: E. coli, e.g. BL21 (DE3)
# Sequence (P01116 1-188 isoform P01116-2): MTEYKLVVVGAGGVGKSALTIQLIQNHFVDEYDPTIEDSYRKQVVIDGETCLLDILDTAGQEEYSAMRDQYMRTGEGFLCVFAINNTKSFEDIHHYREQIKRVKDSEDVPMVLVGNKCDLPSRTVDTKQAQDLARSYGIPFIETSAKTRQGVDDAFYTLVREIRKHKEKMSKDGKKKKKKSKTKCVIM
# Experiment Summary: HTRF assay of wildtype K-Ras interaction with SOS1 (PPI-HTRF)
# Type: binding
# Protocol Conditions: HTRF, 5 nM KRAS WT; read-out: PPI-HTRF-5 nM KRAS WT

>>> value("Nc1nc2c(-c3ccc4c(N5CCC6(CCN6)CC5)nc(OC[C@@]56CCCN5C[C@H](F)C6)nc4c3F)ccc(F)c2s1 [Compound 204]")
"< 5 µM"
>>> value("Cc1ncn(C(=O)N2CC[C@@]23CCN(c2nc(OC[C@@]45CCCN4C[C@H](F)C5)nc4c(F)c(-c5ccc(F)c6sc(N)c(C#N)c56)c(Cl)cc24)C3)n1 (atropisomer, axis not shown; (aS)) [Compound 338]")
"< 5 µM"

// next item, IC50 requested
Prompt: Tell me the measured IC50 of Nc1nc2c(-c3c(Cl)cc4c(N5CCCC6(CCCN6)C5)nc(OC[C@@]56CCCN5C[C@H](F)C6)nc4c3F)ccc(F)c2s1 (stereo partly drawn) [Compound 219] , please.
Completion: < 5 µM
